Measured values drawn from patent US8552220B2 for this set.

Give measured melting point for each item. Keep answers brief.

Note to self: melting point recorded for `O=C(/C=C/c1ccc(O)cc1)CC(=O)/C=C/c1ccccc1Br` was 155 to 159 °C

Note to self: melting point recorded for `CN(C)c1ccc(/C=C/C(=O)CC(=O)/C=C/c2ccc(O)cc2)c(C(F)(F)F)c1` was 195 to 199 °C

Note to self: melting point recorded for `O=C(/C=C/c1ccc(O)cc1)CC(=O)/C=C/c1cc(O)ccc1Br` was 182 to 186 °C

Note to self: melting point recorded for `O=C(/C=C/c1ccc(O)cc1)CC(=O)/C=C/c1cc(O)ccc1-c1ccccc1` was 179 to 186 °C

Note to self: melting point recorded for `O=C(/C=C/c1ccc(O)cc1)CC(=O)/C=C/c1ccccc1C=Cc1ccccc1` was 119 to 128 °C

====

Give measured melting point for each item. Keep answers brief.

Note to self: melting point recorded for `CCOc1ccccc1-c1ccc(O)cc1/C=C/C(=O)CC(=O)/C=C/c1ccc(O)cc1` was 111 to 115 °C

Note to self: melting point recorded for `Nc1ccc(OCc2ccccc2)cc1/C=C/C(=O)CC(=O)/C=C/c1ccc(O)cc1` was 175 to 179 °C

Note to self: melting point recorded for `CN(C)c1ccc(/C=C/C(=O)CC(=O)CCc2ccc(O)cc2)c(C(F)(F)F)c1` was 110 to 114 °C

Note to self: melting point recorded for `O=C(/C=C/c1cc(O)ccc1Br)CC(=O)/C=C/c1cc(O)ccc1Br` was 239 to 243 °C

Note to self: melting point recorded for `O=C(/C=C/c1ccc2cc[nH]c2c1)CC(=O)/C=C/c1cc(O)ccc1Br` was 196 to 200 °C

Note to self: melting point recorded for `O=C(/C=C/c1ccc2cc[nH]c2c1)CC(=O)/C=C/c1cc(O)ccc1[N+](=O)[O-]` was 204 to 207 °C

Note to self: melting point recorded for `COc1ccc(/C=C/C(=O)CC(=O)/C=C/c2cc(O)ccc2[N+](=O)[O-])cc1O` was 107 to 111 °C

Note to self: melting point recorded for `O=C(/C=C/c1cc(O)ccc1-c1ccccc1)CC(=O)CCc1ccc(O)cc1` was 148 to 158 °C

Note to self: melting point recorded for `COCOc1ccc([N+](=O)[O-])c(/C=C/C(=O)CC(=O)/C=C/c2ccc(O)cc2)c1` was 175 to 180 °C

====

MEASURED_ENDPOINT: melting point

Note to self: melting point recorded for CN(C)C(=O)c1ccccc1/C=C/C(=O)CC(=O)/C=C/c1ccc(O)cc1 [CU479] was 210 to 218 °C

Note to self: melting point recorded for O=C(/C=C/c1ccc(O)cc1)CC(=O)/C=C/c1ccc(N2CCN(c3ccccc3)CC2)cc1Br [CU1095] was 195 to 204 °C

Note to self: melting point recorded for COc1cc(O)ccc1/C=C/C(=O)CC(=O)/C=C/c1cc(O)ccc1Br [CU561] was 92 to 98 °C

Note to self: melting point recorded for CN(C)CCOc1ccc(Br)c(/C=C/C(=O)CC(=O)/C=C/c2ccc(O)cc2)c1 [CU552] was 163 to 167 °C

Note to self: melting point recorded for O=C(/C=C/c1ccc(O)cc1)CC(=O)/C=C/c1cc(Br)ccc1F [CU466] was 177 to 203 °C

Note to self: melting point recorded for CS(=O)(=O)Oc1ccccc1/C=C/C(=O)CC(=O)/C=C/c1ccc(O)cc1 [CU483] was 163 to 167 °C

Note to self: melting point recorded for O=C(/C=C/c1ccc(O)cc1)CC(=O)/C=C/c1ccccc1-c1cnnn1Cc1ccccc1 [CU645] was 205 to 215 °C

Note to self: melting point recorded for O=C(/C=C/c1ccc(O)cc1)CC(=O)/C=C/c1cc(Cl)ccc1[N+](=O)[O-] [CU465] was 241 to 250 °C

Note to self: melting point recorded for O=C(/C=C/c1ccc(O)cc1)CC(=O)/C=C/c1ccccc1-c1cn(Cc2ccccc2)nn1 [CU644] was 103 to 109 °C

Note to self: melting point recorded for O=C(/C=C/c1ccc(O)cc1)CC(=O)/C=C/c1ccc(Br)cc1F [CU471] was 223 to 232 °C

Note to self: melting point recorded for O=C(/C=C/c1cc(O)ccc1Br)CC(=O)/C=C/c1cc(O)ccc1-c1ccccc1 [CU616] was 101 to 104 °C

Note to self: melting point recorded for O=C(/C=C/c1ccc(O)cc1)CC(=O)/C=C/c1cc(O)ccc1-c1cccc2ccccc12 [CU538] was 215 to 221 °C

Note to self: melting point recorded for COc1cc(O)ccc1/C=C/C(=O)CC(=O)/C=C/c1cc(OCc2ccccc2)ccc1-c1ccccc1 [CU559] was 175 to 180 °C

Note to self: melting point recorded for COc1cc(O)ccc1/C=C/C(=O)CC(=O)/C=C/c1ccc(N(C)C)cc1[N+](=O)[O-] [CU603] was 223 to 226 °C

Note to self: melting point recorded for O=C(/C=C/c1ccc(O)cc1)CC(=O)/C=C/c1ccccc1F [CU622] was 146 to 150 °C

Note to self: melting point recorded for O=C(/C=C/c1cc(O)ccc1Br)CC(=O)/C=C/c1ccccc1C(F)(F)F [CU615] was 66 to 70 °C

Note to self: melting point recorded for O=C(/C=C/c1ccc(O)cc1)CC(=O)/C=C/c1cc(OCc2ccccc2)ccc1[N+](=O)[O-] [CU475] was 168 to 172 °C

Note to self: melting point recorded for O=C(/C=C/c1ccc2cc[nH]c2c1)CC(=O)/C=C/c1ccc(O)cc1Cl [CU601] was 182 to 186 °C
